Measured Activity values are reported for all entries that follow.
System: Rattus norvegicus
method_notes: Anticonvulsant activity in Charles foster rat assessed as protection against maximal electroshock-induced seizures at 30 mg/kg, ip administered 1 hr before electroshock challenge
Format: functional
settings: route intraperitoneal
State the answer as a number, implicitly in %.

- compound: "COc1ccc(N/C=C2\\C(c3ccc(O)cc3)=Nc3ccccc3OC2c2ccccc2Cl)cc1 (stereo not given)"
  measured_number: 60

Rattus norvegicus data for Oc1ccc(C2=Nc3ccccc3SC(c3ccccc3O)/C2=C/Nc2ccc(Cl)cc2)cc1 (stereo not given) ; its Activity: 60

# COc1ccc(N/C=C2\C(c3ccc(O)cc3)=Nc3ccccc3SC2c2cccc(OC)c2)cc1 (stereo not given) with Rattus norvegicus: Activity is 50

Field Activity (Rattus norvegicus), entry Oc1ccc(C2=Nc3ccccc3OC(c3ccc(Cl)cc3)/C2=C/Nc2ccc(Cl)cc2)cc1 (stereo not given) : 60

* * *

The compounds listed here are annotated with their Activity.
System: Rattus norvegicus
method_notes: Anticonvulsant activity in Charles foster rat assessed as protection against maximal electroshock-induced seizures at 30 mg/kg, ip administered 1 hr before electroshock challenge
Format: functional
settings: route intraperitoneal
Numbers only here, please. The scale is %.

- compound: "COc1ccc(N/C=C2\\C(c3ccc(O)cc3)=Nc3ccccc3OC2c2ccc(Cl)cc2)cc1 (configuration not stated)"
  Activity (%): 50
- compound: "COc1ccc(N/C=C2\\C(c3ccc(O)cc3)=Nc3ccccc3SC2c2ccc(Cl)cc2)cc1 (configuration not stated)"
  Activity (%): 70
- compound: "Oc1ccc(C2=Nc3ccccc3OC(c3ccccc3Cl)C2)cc1 (configuration not stated)"
  Activity (%): 70
- compound: "COc1ccc(N/C=C2\\C(c3ccc(O)cc3)=Nc3ccccc3SC2c2ccc(O)cc2)cc1 (configuration not stated)"
  Activity (%): 60
- compound: "Oc1ccc(C2=Nc3ccccc3SC(c3ccccc3O)C2)cc1 (configuration not stated)"
  Activity (%): 70

Sample COc1ccc(N/C=C2\C(c3ccc(O)cc3)=Nc3ccccc3OC2c2ccccc2O)cc1 (configuration not stated) ; Activity observed: 60

In plain terms, Oc1ccc(C2=Nc3ccccc3OC(c3ccccc3O)/C2=C/Nc2ccc(Cl)cc2)cc1 (configuration not stated) has a documented Activity of 60

// Activity value for COc1ccc(N/C=C2\C(c3ccc(O)cc3)=Nc3ccccc3SC2c2ccccc2O)cc1 (configuration not stated) : 70

# Activity (compound: COc1cccc(C2CC(c3ccc(O)cc3)=Nc3ccccc3O2)c1 (configuration not stated) ) is 20

Activity reported for this compound Oc1ccc(C2=Nc3ccccc3SC(c3ccc(O)cc3)C2)cc1 (configuration not stated) : 60

* * *

System: Rattus norvegicus
method_notes: Anticonvulsant activity in Charles foster rat assessed as protection against maximal electroshock-induced seizures at 30 mg/kg, ip administered 1 hr before electroshock challenge
Format: functional
settings: route intraperitoneal
Some molecules, each annotated with its measured Activity.
Value expressed in %; do not type the unit.

Worked set:
- molecule: "Oc1ccc(C2=Nc3ccccc3OC(c3ccc(Cl)cc3)C2)cc1 (stereo unspecified)"
  unit_symbol: "%"
  Activity: 60
- molecule: "Oc1ccc(C2=Nc3ccccc3SC(c3ccccc3Cl)C2)cc1 (stereo unspecified)"
  unit_symbol: "%"
  Activity: 80
- molecule: "COc1ccc(N/C=C2\\C(c3ccc(O)cc3)=Nc3ccccc3SC2c2ccccc2Cl)cc1 (stereo unspecified)"
  unit_symbol: "%"
  Activity: 90
- molecule: "Oc1ccc(C2=Nc3ccccc3OC(c3ccc(O)cc3)/C2=C/Nc2ccc(Cl)cc2)cc1 (stereo unspecified)"
  unit_symbol: "%"
  Activity: 70
- molecule: "Oc1ccc(C2=Nc3ccccc3OC(c3ccc(O)cc3)C2)cc1 (stereo unspecified)"
  unit_symbol: "%"
  Activity: 70

Looking up COc1ccc(N/C=C2\C(c3ccc(O)cc3)=Nc3ccccc3OC2c2cccc(OC)c2)cc1 (stereo unspecified) , I found its Activity recorded as 70
